# subject_of_test: Glycylpeptide N-tetradecanoyltransferase 1 (Homo sapiens) (UniProt P30419)
# Sequence (P30419 whole entry, looked up): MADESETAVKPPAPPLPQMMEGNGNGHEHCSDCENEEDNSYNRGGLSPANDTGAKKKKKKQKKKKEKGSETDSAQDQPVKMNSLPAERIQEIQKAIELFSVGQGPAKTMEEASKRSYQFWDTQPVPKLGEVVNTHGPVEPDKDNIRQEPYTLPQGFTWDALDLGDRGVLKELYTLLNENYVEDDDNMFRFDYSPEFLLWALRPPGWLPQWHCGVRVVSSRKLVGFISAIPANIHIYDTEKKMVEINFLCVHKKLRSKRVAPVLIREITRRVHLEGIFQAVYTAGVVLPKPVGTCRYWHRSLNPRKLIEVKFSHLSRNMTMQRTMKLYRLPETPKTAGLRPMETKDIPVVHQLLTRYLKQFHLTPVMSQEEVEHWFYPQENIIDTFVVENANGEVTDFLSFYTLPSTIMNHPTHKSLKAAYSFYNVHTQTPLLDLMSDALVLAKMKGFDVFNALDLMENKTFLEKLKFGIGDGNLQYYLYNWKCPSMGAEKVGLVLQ
# experiment: Inhibition of recombinant N-terminal his-6 tagged human NMT expressed in Escherichia coli BL21 (DE3)pLysS using peptide substrate preincubated for 5 mins followed by substrate addition and measured after 30 mins by scintillation proximity assay
Items are presented alongside their recorded IC50.
measured_quantity: IC50 (µM)

INSERT INTO results (compound_structure_string, subject_of_test, measured_quantity, value) VALUES
  ('O=C(Nc1nc2ccccc2s1)[C@H]1CC[C@@H](NCc2ccc3ccccc3c2)CC1', 'Glycylpeptide N-tetradecanoyltransferase 1 (Homo sapiens) (UniProt P30419)', 'IC50', 286),
  ('CN(C)C(=O)c1ccc2nc(NC(=O)[C@@H]3CCC[C@H](NCc4ccc5ccoc5c4)C3)sc2c1', 'Glycylpeptide N-tetradecanoyltransferase 1 (Homo sapiens) (UniProt P30419)', 'IC50', 656),
  ('O=C(Nc1nc2cc(F)ccc2s1)[C@H]1CC[C@@H](NCc2ccc3ccccc3c2)CC1', 'Glycylpeptide N-tetradecanoyltransferase 1 (Homo sapiens) (UniProt P30419)', 'IC50', 656);

Reference source: BindingDB's records for PubMed 37336067
